Reported growth by item:
test system: A549/ATCC NSCLC; assay: NCI-60 one-dose screen, 48 h (100 = growth as untreated, 0 = no growth, -100 = all killed); details: 10 µM unless noted
The panel holds about 83,000 compounds, 20% with a hit somewhere; the sample as a whole holds those more often.
Hi! Could you send only the number? It should be in %, unit omitted.

Below: 5 compounds and their reported growth.
Cc1ccc(C(=O)Nc2ccc(Cl)cc2C(=O)NCc2ccccc2)cc1: 85.9
CC(=O)n1c2ccccc2c2ccccc21: 107
OCc1nnn(-c2ccccc2)c1CO: 110
c1ccc(-n2nnnc2-c2cccc3ccccc23)cc1: 34.5
O=C(/C(=N/O)S(=O)(=O)c1ccccc1)c1cccs1: 106

query: Please report the recorded growth for N#Cc1c2ccccc2c2n1-c1ccccc1OC(c1ccccc1)C2=O (stereo unspecified) .
result: 10.4
